Reported IICR level (percentage of inhibition) values for a set of compounds
Tested on: IICR (IP3 induced calcium release) in CHO cells
test name: Assay of IICR (IP3 induced calcium release)-inhibiting action
Assay type: cell-based, Chinese hamster
conditions: test compound 100 μmol; CHO cells, 10 μM ATP

- compound: "CC(C)N(CCC(=O)c1ccc(Cc2ccccc2)cc1)Cc1ccccc1 [Example 103]"
  IICR level (percentage of inhibition) [%]: 100
- compound: "CC(C)(C)N(CCO)CCC(=O)c1ccc(Br)s1 [Example 332]"
  IICR level (percentage of inhibition) [%]: 50
- compound: "O=C(CCNCCSSCCNCCC(=O)c1ccc(Br)s1)c1ccc(Br)s1 [Example 340]"
  IICR level (percentage of inhibition) [%]: 60
- compound: "O=C(CCNCCSSCCNCCC(=O)c1ccc2ccccc2c1)c1ccc2ccccc2c1 [Example 370]"
  IICR level (percentage of inhibition) [%]: 29
- compound: "O=C(CCNCCCCNCCC(=O)c1ccc(Br)s1)c1ccc(Br)s1 [Example 356]"
  IICR level (percentage of inhibition) [%]: 10
- compound: "O=C(CCNCCO)c1ccc(Br)s1 [Example 307]"
  IICR level (percentage of inhibition) [%]: 30
- compound: "CC(C)(C)N(CCC(=O)c1ccc(C#N)cc1)Cc1ccccc1 [Example 304]"
  IICR level (percentage of inhibition) [%]: 20
- compound: "O=C(CCN(CCO)CCO)c1ccco1 [Example 130]"
  IICR level (percentage of inhibition) [%]: 50
- compound: "O=C(CCNCCSSCCNCCC(=O)c1cccs1)c1cccs1 [Example 369]"
  IICR level (percentage of inhibition) [%]: 70
- compound: "CC(C)N(CCO)CCCC(=O)c1ccccc1 [Example 207]"
  IICR level (percentage of inhibition) [%]: 20
